System: E. faecalis PCM 2673 biofilm
Type: cell-based, Enterococcus faecalis
Condition Label: 24 h
Where a SMILES comes first, the peptide text is derived from it.
Please go through the items and note down their MBEC, E. faecalis PCM 2673.
Write the answer as a number in µg/mL, unit excluded.

## Input Any idea what its MBEC, E. faecalis PCM 2673 is? The compound is CC[C@H](C)[C@H](NC(=O)[C@H](CCCCN)NC(=O)[C@H](CCCCN)NC(=O)[C@@H](NC(=O)[C@@H](NC(=O)[C@H](CC(=O)O)NC(=O)[C@H](Cc1ccccc1)NC(=O)[C@H](CC(C)C)NC(=O)CN)[C@@H](C)CC)[C@@H](C)CC)C(=O)N[C@@H](C)C(=O)N[C@@H](CCC(=O)O)C(=O)N[C@@H](C)C(=O)N[C@@H](Cc1ccccc1)C(N)=O [Peptide S12A] (H-GLFDIIKKIAEAF-NH2)
## Output 128

## Input Now give it for CC[C@H](C)[C@H](NC(=O)[C@H](C)NC(=O)[C@H](Cc1ccccc1)NC(=O)[C@H](CC(C)C)NC(=O)CN)C(=O)N[C@H](C(=O)N[C@@H](CCCCN)C(=O)N[C@@H](CCCCN)C(=O)N[C@H](C(=O)N[C@@H](C)C(=O)N[C@@H](CCC(=O)O)C(=O)N[C@@H](CO)C(=O)N[C@@H](Cc1ccccc1)C(N)=O)[C@@H](C)CC)[C@@H](C)CC [Peptide D4A] (H-GLFAIIKKIAESF-NH2) too.
## Output 128

###

Provide the reported MIC, E. coli ATCC 25922 of each item.
Test system: E. coli ATCC 25922
Format: cell-based, Escherichia coli
Condition Label: ATCC 25922, 18 h
Where a SMILES comes first, the peptide text is derived from it.
Give the value in µg/mL but do not write µg/mL after it.

## Input Query MIC, E. coli ATCC 25922 on E. coli ATCC 25922 for CC[C@H](C)[C@H](NC(=O)[C@H](C)NC(=O)[C@H](CCCCN)NC(=O)[C@@H](NC(=O)[C@@H](NC(=O)[C@H](CC(=O)O)NC(=O)[C@H](Cc1ccccc1)NC(=O)[C@H](CC(C)C)NC(=O)CN)[C@@H](C)CC)[C@@H](C)CC)C(=O)N[C@@H](C)C(=O)N[C@@H](CCC(=O)O)C(=O)N[C@@H](CO)C(=O)N[C@@H](Cc1ccccc1)C(N)=O [Peptide K8A] (H-GLFDIIKAIAESF-NH2)
## Output 128

## Input Try this compound too: CC[C@H](C)[C@H](NC(=O)[C@H](CCCCN)NC(=O)[C@H](CCCCN)NC(=O)[C@H](C)NC(=O)[C@@H](NC(=O)[C@H](CC(=O)O)NC(=O)[C@H](Cc1ccccc1)NC(=O)[C@H](CC(C)C)NC(=O)CN)[C@@H](C)CC)C(=O)N[C@@H](C)C(=O)N[C@@H](CCC(=O)O)C(=O)N[C@@H](CO)C(=O)N[C@@H](Cc1ccccc1)C(N)=O [Peptide I6A] (H-GLFDIAKKIAESF-NH2)
## Output 512

###

System: human red blood cells (RBCs)
Protocol Notes: Hemolysis assay
Type: cell-based
Condition Label: red cells of human, 1 h, 16
Where a SMILES comes first, the peptide text is derived from it.
Please provide measured Percentage of hemolysis at 16 μg/mL for the entries that follow.

## Input Quick one: Percentage of hemolysis at 16 μg/mL for CC[C@H](C)[C@H](NC(=O)[C@H](CCCCN)NC(=O)[C@H](CCCCN)NC(=O)[C@@H](NC(=O)[C@@H](NC(=O)[C@H](CC(=O)O)NC(=O)[C@H](Cc1ccccc1)NC(=O)[C@H](CC(C)C)NC(=O)CN)[C@@H](C)CC)[C@@H](C)CC)C(=O)N[C@@H](C)C(=O)N[C@@H](CCC(=O)O)C(=O)N[C@@H](C)C(=O)N[C@@H](Cc1ccccc1)C(N)=O [Peptide S12A] (H-GLFDIIKKIAEAF-NH2) ?
## Output 1.2%

## Input Next compound: CC[C@H](C)[C@H](NC(=O)[C@H](C)NC(=O)[C@H](Cc1ccccc1)NC(=O)[C@H](CC(C)C)NC(=O)CN)C(=O)N[C@H](C(=O)N[C@@H](CCCCN)C(=O)N[C@@H](CCCCN)C(=O)N[C@H](C(=O)N[C@@H](C)C(=O)N[C@@H](CCC(=O)O)C(=O)N[C@@H](CO)C(=O)N[C@@H](Cc1ccccc1)C(N)=O)[C@@H](C)CC)[C@@H](C)CC [Peptide D4A] (H-GLFAIIKKIAESF-NH2)
## Output 0.3%

## Input Continue with CC[C@H](C)[C@H](NC(=O)[C@H](C)NC(=O)[C@H](CCCCN)NC(=O)[C@@H](NC(=O)[C@@H](NC(=O)[C@H](CC(=O)O)NC(=O)[C@H](Cc1ccccc1)NC(=O)[C@H](CC(C)C)NC(=O)CN)[C@@H](C)CC)[C@@H](C)CC)C(=O)N[C@@H](C)C(=O)N[C@@H](CCC(=O)O)C(=O)N[C@@H](CO)C(=O)N[C@@H](Cc1ccccc1)C(N)=O [Peptide K8A] (H-GLFDIIKAIAESF-NH2)
## Output 0.0%

## Input Follow-up entry: CC[C@H](C)[C@H](NC(=O)[C@H](CCCCN)NC(=O)[C@H](C)NC(=O)[C@@H](NC(=O)[C@@H](NC(=O)[C@H](CC(=O)O)NC(=O)[C@H](Cc1ccccc1)NC(=O)[C@H](CC(C)C)NC(=O)CN)[C@@H](C)CC)[C@@H](C)CC)C(=O)N[C@@H](C)C(=O)N[C@@H](CCC(=O)O)C(=O)N[C@@H](CO)C(=O)N[C@@H](Cc1ccccc1)C(N)=O [Peptide K7A] (H-GLFDIIAKIAESF-NH2)
## Output 0.1%

## Input Next record, please: CC[C@H](C)[C@H](NC(=O)[C@H](CCCCN)NC(=O)[C@H](CCCCN)NC(=O)[C@@H](NC(=O)[C@@H](NC(=O)[C@H](CC(=O)O)NC(=O)[C@H](Cc1ccccc1)NC(=O)[C@H](C)NC(=O)CN)[C@@H](C)CC)[C@@H](C)CC)C(=O)N[C@@H](C)C(=O)N[C@@H](CCC(=O)O)C(=O)N[C@@H](CO)C(=O)N[C@@H](Cc1ccccc1)C(N)=O [Peptide L2A] (H-GAFDIIKKIAESF-NH2)
## Output 0.0%
